Values compiled from paper PMC12040169.

- experimental.protocol: in vitro
- cond: human, hela cells, % viability
Field: label. Allowed values: label 1 (viability at 28.5 h, 10 µM < 90%) or label 0 (viability at 28.5 h, 10 µM >= 90%).

Confirm or reject: viability at 28.5 h, 10 µM of CC(=O)Nc1ccc(NC(=O)c2cnc(-c3cccc(C)c3)c(-c3ccncc3)c2)cc1C(F)(F)F lies strictly below 90% label 1

I wonder whether Cc1cccc(NC(=O)c2n[nH]c3ccccc23)c1 has viability at 28.5 h, 10 µM below 90%. Can you tell? label 1

Please indicate whether the reported viability at 28.5 h, 10 µM of CC1(C)CCCN(Cc2nnnn2-c2ccc(S(C)(=O)=O)cc2)CC1 is strictly below 90%. label 1

Is viability at 28.5 h, 10 µM strictly under 90% for the entry Brc1cn2ccnc2c(NCCc2ccccn2)n1 ? label 0

hey, is viability at 28.5 h, 10 µM for O=C(O)c1[nH]c2ccccc2c1C(c1cc(Cl)cc([N+](=O)[O-])c1O)c1c(C(=O)O)[nH]c2ccccc12 lower than 90% or not? label 0

Does this compound meet the criterion viability at 28.5 h, 10 µM < 90%? O=C(c1cscn1)N1CCN(CCc2ccccc2)CC1 label 0

Say whether its viability at 28.5 h, 10 µM is strictly beneath 90%. Entry: c1ccc(OCCN2CCC(Oc3cncc(OCCN4CCOCC4)n3)C2)cc1 (stereo not drawn) label 0

====

- Tested on: C. trachomatis L2/434/Bu expressing GFP (CTL2-GFP)
- Construct: L2/434/Bu GFP intracellular growth in HeLa cells
- experimental.protocol: microbe, parasite or virus in culture
- Set-up: C. trachomatis total inclusion area by high-content imaging, normalised to DMSO
- cond: Chlamydia trachomatis, HeLa, 28.5 h; total inclusion area; read-out: % of control remaining
quantity.kind: activity at 1 µM (%)
Quick reminder: number only, in %, skip the unit.

Which measured activity at 1 µM value corresponds to Fc1cc(Br)c(CNCc2ncc[nH]2)c(N2CCCCC2)c1F [CBK304243] ? 105

What value of activity at 1 µM has been reported for the following compound? CCc1nnc(NS(=O)(=O)c2ccc(NC(=O)COc3ccc(Cl)cc3Cl)cc2)s1 [CBK200050] 99.2

Field request: activity at 1 µM | item: O=C(Nc1nccs1)c1cc(C2CCN(C(=O)CC3CCCCC3)C2)nc2ccccc12 (stereo not shown) [CBK285586] 115

What measured activity at 1 µM goes with CC(C)(C)c1ccc(N(C2CCNCC2)S(=O)(=O)c2cccc(C(F)(F)F)c2)cc1 [CBK165056T] ? 78

# get_value(readout='activity at 1 µM', item= CCc1cc(-c2n[nH]cc2-c2nc(C)cs2)c(O)cc1OC [CBK287934] ) 87.9

Name the reported activity at 1 µM value associated with the compound O=C(Nc1ccc(S(=O)(=O)Nc2ncccn2)cc1)c1ccc2c(c1)OCCO2 [CBK268132] 89.9

Look up activity at 1 µM for this compound: FC(F)(F)c1ccc(N2CCNCC2)nc1OCc1ccc2c(c1)OCCO2 [CBK003994A] 82.5

Could you tell me which activity at 1 µM is on file for N=C(N)Nc1nc(-c2ccccc2)c2cc(F)ccc2n1 [CBK267350] ? 90.4

Requested read-out: activity at 1 µM. Entry: C1=C(CCNCCc2ccccc2)c2ccccc2C12CCCC2 [CBK024723] 112

Quick check: activity at 1 µM of Cn1cc(C(c2ccc(OCC(=O)O)cc2)c2cn(C)c3ccccc23)c2ccccc21 [CBK266403] ? 87.5

Request the reported activity at 1 µM associated with CC(=O)NC[C@H]1CN(c2ccc3c(c2)CCN(C(C)=O)CC3)C(=O)O1 [CBK018491] 57.6

// query activity at 1 µM value for entry CC(=O)NC[C@H]1CN(c2ccc3c(c2)CCN(C(=O)Cc2ccccc2)CC3)C(=O)O1 [CBK018499] 38

I am curious: what activity at 1 µM value has been reported for Cc1cc(NS(=O)(=O)c2ccc(Nc3nc(-c4cccs4)cs3)cc2)no1 [CBK262504] ? 112

Looking for the measured activity at 1 µM of Cc1ccc2[nH]c3c(c2c1)CCOC31CCN(Cc2ccccc2-c2ccccc2)CC1 [CBK039915] , can you help? 27.9

Given the compound CCc1cc(Br)ccc1S(=O)(=O)NC(CC)COC (stereo not shown) [CBK045265] , what is its reported activity at 1 µM? 117

Which value of activity at 1 µM has been reported for Nc1cccc2c(OCCO)cccc12 [CBK001976C] in the records? 82.7

Quick one: activity at 1 µM for Cc1ccc(N2C(=O)c3[nH]nc(C)c3C2c2ccc(O)cc2)cc1 (stereo not shown) [CBK287915] ? 111

Name the reported activity at 1 µM value associated with the compound O=C(c1ccc(-c2ccc(F)cc2)o1)N1C[C@H]2CC[C@](O)(c3ccc(F)cc3)[C@H]2C1 [CBK286415] 0.419

Look at this compound and give its reported activity at 1 µM. CC(=O)NC[C@H]1CN(c2ccc(C#N)c(C)c2)C(=O)O1 [CBK010393] 102
